B1: ATL3 (parent)
chain: QELEEEIKELYENFCKHNGSKNVF

# Variants of: B1
# assay-explanation: protein stability index of a GFP-peptide fusion (GPS, HEK-293T) (PSI 1-6); higher = more stable;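 also: lentivirally expressed fusions sorted by FACS into six bins by GFP to DsRed ratio, PSI derived from sequencing read proportions per bin multiplied by bin number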
# stated-conditions: c terminus: a fixed tail appended
Reported protein stability index is given for each of the following variants.
The response must contain the number and no unit.

Past entries and their recorded results:
biosequence="QELEEELKELYENFCKHNGSKNVF [I7L]" test_result=3.03
biosequence="QELEEEIDELYENFCKHNGSKNVF [K8D]" test_result=3.41
biosequence="QELEEEIKELYENFCKHWGSKNVF [N18W]" test_result=2.85
biosequence="QELEEEIKELYENFAKHNGSKNVF [C15A]" test_result=3.86
biosequence="QELEEEIKELYENYCKHNGSKNVF [F14Y]" test_result=3.53
biosequence="QELEEEIKSLYENFCKHNGSKNVF [E9S]" test_result=2.39
biosequence="QTLEEEIKELYENFCKHNGSKNVF [E2T]" test_result=3.43
biosequence="QELEEEIKELYENFCKHPGSKNVF [N18P]" test_result=2.72

Item QELEEEIKELYENFCKANGSKNVF [H17A] has what recorded protein stability index?
2.52

Now try QELEEEIKELYINFCKHNGSKNVF [E12I] .
2.27

Now try QELEEEIKELYENFCKHNGSKFVF [N22F] .
2.59

Now try QELEEEIWELYENFCKHNGSKNVF [K8W] .
2.68

Now try QELEEEIKCLYENFCKHNGSKNVF [E9C] .
2.69

Now try QELEEEIKELYRNFCKHNGSKNVF [E12R] .
2.19

Now try QELGEEIKELYENFCKHNGSKNVF [E4G] .
3.2

Now try QELEEEIKELYENFCKHNGIKNVF [S20I] .
2.54

Origin of measurements: the supplement of paper PMC10567573
